Test system: Medulla
test_summary: Drug uptake in anesthetized cynomolgus monkey brain medulla after 55 mins postinjection
Type: ADME, organism-based, Macaca fascicularis
run_parameters: in vivo
Mark each entry true (1) if its Drug uptake sits below 4, and false (0) for all others.

// known answers, use as guide
>  <molecule>
O=C(OCC[18F])C1C2CCC(CC1c1cccc(/C=C\Br)c1)N2 (stereo not given)

>  <label_value>
false (0)

$$$$
>  <molecule>
O=C(OCCC[18F])C1C2CCC(CC1c1cccc(/C=C\I)c1)N2 (stereo not given)

>  <label_value>
false (0)

$$$$
>  <molecule>
O=C(OCC[18F])C1C2CCC(CC1c1ccc(/C=C\I)cc1)N2 (stereo not given)

>  <label_value>
true (1)

$$$$

Now take the following molecule into account.
Q: Does O=C(OCCC[18F])C1C2CCC(CC1c1cccc(/C=C\Br)c1)N2 (stereo not given) have Drug uptake strictly under 4?
A: false (0)

* * *

Test system: Medulla
test_summary: Drug uptake in anesthetized cynomolgus monkey brain medulla after 105 mins postinjection
Assay type: ADME, organism-based, Macaca fascicularis
run_parameters: in vivo, 1.75 h
Exercise: state measured Drug uptake for each of the compounds provided.
Give bare numbers.

>  <compound>
O=C(OCCC[18F])C1C2CCC(CC1c1cccc(/C=C\I)c1)N2 (stereo not given)

>  <target>
Medulla

>  <reported_endpoint>
Drug uptake

>  <reported_result>
4.34

$$$$
>  <compound>
O=C(OCC[18F])C1C2CCC(CC1c1cccc(/C=C\I)c1)N2 (stereo not given)

>  <target>
Medulla

>  <reported_endpoint>
Drug uptake

>  <reported_result>
3.58

$$$$
>  <compound>
O=C(OCC[18F])C1C2CCC(CC1c1ccc(/C=C\I)cc1)N2 (stereo not given)

>  <target>
Medulla

>  <reported_endpoint>
Drug uptake

>  <reported_result>
3.82

$$$$
>  <compound>
O=C(OCC[18F])C1C2CCC(CC1c1cccc(/C=C\Br)c1)N2 (stereo not given)

>  <target>
Medulla

>  <reported_endpoint>
Drug uptake

>  <reported_result>
4.31

$$$$

# next compound below
Q: Report Drug uptake for O=C(OCCC[18F])C1C2CCC(CC1c1cccc(/C=C\Br)c1)N2 (stereo not given) please.
A: 5.19

* * *

Provide the reported Drug uptake of each item.
Tested on: Midbrain
test_summary: Drug uptake in anesthetized cynomolgus monkey brain midbrain after 65 mins postinjection
Format: ADME, organism-based, Macaca fascicularis
Set-up: unit not given here
run_parameters: in vivo
One number for each entry.

# example entries with known answers
>  <compound>
O=C(OCC[18F])C1C2CCC(CC1c1ccc(/C=C\I)cc1)N2 (stereo not given)

>  <Drug uptake>
4.13

$$$$
>  <compound>
O=C(OCC[18F])C1C2CCC(CC1c1cccc(/C=C\Br)c1)N2 (stereo not given)

>  <Drug uptake>
5

$$$$
>  <compound>
O=C(OCCC[18F])C1C2CCC(CC1c1cccc(/C=C\I)c1)N2 (stereo not given)

>  <Drug uptake>
4.97

$$$$
>  <compound>
O=C(OCC[18F])C1C2CCC(CC1c1cccc(/C=C\I)c1)N2 (stereo not given)

>  <Drug uptake>
4.91

$$$$

// switching to the query compound
Q: Query: Drug uptake; subject: O=C(OCCC[18F])C1C2CCC(CC1c1cccc(/C=C\Br)c1)N2 (stereo not given)
A: 6.06

* * *

Would you mind telling me the reported Drug uptake of each entry?
Test system: Caudate
test_summary: Drug uptake in anesthetized cynomolgus monkey brain caudate after 1.5 mins postinjection
Assay type: ADME, organism-based, Macaca fascicularis, Caudate nucleus
run_parameters: in vivo, 0.025 h
Give bare numbers.

>  <molecule>
O=C(OCC[18F])C1C2CCC(CC1c1cccc(/C=C\Br)c1)N2 (stereo not given)

>  <target>
Caudate

>  <Drug uptake>
0.04

$$$$
>  <molecule>
O=C(OCCC[18F])C1C2CCC(CC1c1cccc(/C=C\Br)c1)N2 (stereo not given)

>  <target>
Caudate

>  <Drug uptake>
0.31

$$$$
>  <molecule>
O=C(OCC[18F])C1C2CCC(CC1c1cccc(/C=C\I)c1)N2 (stereo not given)

>  <target>
Caudate

>  <Drug uptake>
0.08

$$$$

Record Drug uptake per entry; entries follow.
1. O=C(OCCC[18F])C1C2CCC(CC1c1cccc(/C=C\I)c1)N2 (stereo not given)
2. O=C(OCC[18F])C1C2CCC(CC1c1ccc(/C=C\I)cc1)N2 (stereo not given)

A:
1: 0.16; 2: 0.07
